Consider the following substances; for each one, report its % of Total A1PI Eluted by Fraction (Based on Absorbance at 280 nm), Flowthrough.
# TESTED ON: A1PI (Homo sapiens)
# Construct: Human plasma is currently the only approved source of therapeutic AlPI
# Sequence (P01009 25-418): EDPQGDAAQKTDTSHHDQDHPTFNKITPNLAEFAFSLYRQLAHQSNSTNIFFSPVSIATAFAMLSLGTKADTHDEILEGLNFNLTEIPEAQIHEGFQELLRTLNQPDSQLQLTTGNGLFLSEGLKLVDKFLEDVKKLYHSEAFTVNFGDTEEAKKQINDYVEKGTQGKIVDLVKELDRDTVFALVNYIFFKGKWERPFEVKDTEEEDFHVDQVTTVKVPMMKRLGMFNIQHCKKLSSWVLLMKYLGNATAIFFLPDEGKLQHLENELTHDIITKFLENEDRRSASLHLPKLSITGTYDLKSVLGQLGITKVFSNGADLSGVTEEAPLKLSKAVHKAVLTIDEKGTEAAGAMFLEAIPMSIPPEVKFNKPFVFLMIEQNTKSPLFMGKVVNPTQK
# METHOD NOTES: A1PI binding on peptide-resin column, injection of 1 mg A1PI in equilibration buffer
# MEASUREMENT SETUP: VIFLVR point mutations; 1 mg A1PI, 20° C.
Ends that are not written are not given here.
Answers are plain numbers, in %.

Examples with answers:
SUBSTANCE	TESTED ON	TEST RESULT
A I F L V R: point mutation of VIFLVR, position 1 (AIFLVR)	A1PI (Homo sapiens)	5
Ac-V I F L V R: N-terminal acetylated sequence Ac-VIFLVR (listed under SEQ ID No:37) (not fully specified (C-terminus); printed as Ac-VIFLVR)	A1PI (Homo sapiens)	100
VIFLVR	A1PI (Homo sapiens)	0
V I F L A R: point mutation of VIFLVR, position 5 (VIFLAR)	A1PI (Homo sapiens)	75
S I F L V R: point mutation of VIFLVR, position 1 (SIFLVR)	A1PI (Homo sapiens)	13
V A F L V R: point mutation of VIFLVR, position 2 (VAFLVR)	A1PI (Homo sapiens)	0
K I F L V R: point mutation of VIFLVR, position 1 (KIFLVR)	A1PI (Homo sapiens)	0

Now for a further substance.
Observed % of Total A1PI Eluted by Fraction (Based on Absorbance at 280 nm), Flowthrough, A1PI (Homo sapiens), VIFLVA: point mutation of VIFLVR, position 6, C-terminal Arg replaced with Ala : 92
